- TARGET UNDER TEST: Glycogen synthase kinase-3 alpha (Homo sapiens)
- Sequence (P49840 whole entry): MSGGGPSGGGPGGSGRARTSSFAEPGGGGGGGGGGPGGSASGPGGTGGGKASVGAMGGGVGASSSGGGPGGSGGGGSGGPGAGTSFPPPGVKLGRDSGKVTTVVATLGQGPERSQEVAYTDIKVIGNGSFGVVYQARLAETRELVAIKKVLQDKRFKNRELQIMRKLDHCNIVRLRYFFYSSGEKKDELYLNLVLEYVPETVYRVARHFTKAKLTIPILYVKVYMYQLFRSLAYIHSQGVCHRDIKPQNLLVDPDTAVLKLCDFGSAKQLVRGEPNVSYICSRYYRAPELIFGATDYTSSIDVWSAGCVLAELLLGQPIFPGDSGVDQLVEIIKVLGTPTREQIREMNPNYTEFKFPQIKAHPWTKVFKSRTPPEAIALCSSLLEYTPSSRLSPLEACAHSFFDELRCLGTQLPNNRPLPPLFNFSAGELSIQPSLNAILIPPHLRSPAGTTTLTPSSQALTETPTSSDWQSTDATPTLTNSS
Listed below: IC50 values for each entry.

The following compounds have reported results that may help.
CC[C@]1(c2cccc(-c3cnn(C)c3)c2)C2=CN=NC2NC2=C1C(=O)CC(C)(C)C2 (some centres not stated) = 100 to 1000 nM
CC1(C)CC(=O)C2=C(C1)NC1=C(CN=N1)C21CCN(S(=O)(=O)c2cccc(C(F)F)c2)CC1 = < 100 nM
CC[C@]1(c2cccc(-c3cn(C)nc3C)c2)C2=CN=NC2NC2=C1C(=O)NC(C)(C)C2 (some centres not stated) = 1000 to 5000 nM

Entry CC[C@@]1(c2cccc(-c3cnn(C)c3)c2)C2=C(CC(C)(C)CC2=O)NC2N=NC(C(F)(F)F)=C21 (some centres not stated) , Glycogen synthase kinase-3 alpha (Homo sapiens) data, IC50 value: 100 to 1000 nM

Entry CC[C@]1(c2cccc(C(F)(F)F)c2)C2=CN=NC2NC2=C1C(=O)NC[C@H]2C (some centres not stated) , Glycogen synthase kinase-3 alpha (Homo sapiens) data, IC50 value: < 100 nM

Fill in: Glycogen synthase kinase-3 alpha (Homo sapiens) IC50 for CCC1(c2ccccc2)C2=C(N=NC2)NC2=C1C(=O)CC1(CC1)C2 (configuration not stated) = 100 to 1000 nM

The recorded IC50 with Glycogen synthase kinase-3 alpha (Homo sapiens) for CCC1(c2cccc(C(F)(F)F)c2)C2=CN=NC2NC2=C1C(=O)N(c1ccsc1)CC2 (configuration not stated) was < 100 nM

Record for CC[C@@]1(c2cccc(Oc3ncccn3)c2)C2=C(CC(C)(C)NC2=O)NC2N=NC(F)=C21 (some centres not stated) under target or system Glycogen synthase kinase-3 alpha (Homo sapiens): IC50 reported as 1000 to 5000 nM

----------
Here's what we have: pIC50 numbers for Glycogen synthase kinase-3 alpha (Homo sapiens, UniProt P49840).
pIC50: −log10 of the molar value.

Worked cases, pIC50 given:
CC[C@]1(c2cccc(-c3ccncc3)c2)C2=CN=NC2NC2=C1C(=O)CC(C)(C)[C@@H]2F (stereo not given in full) [US20250313563, Compound 959341] = 5.30 to 6.00
CC1(C)CC(=O)C2=C(C1)NC1=C(CN=N1)C21COC2(CN(C(=O)C3(F)CCCC3)C2)C1 (stereo not given) [US20250313563, Compound 947277] = > 7.00
CC[C@]1(c2cccc(-c3cc(C)nc(C)c3)c2)C2=CN=NC2NC2=C1C(=O)CC(C)(C)C2 (stereo not given in full) [US20250313563, Compound 913222] = > 7.00
CC1(C)CC(=O)C2=C(C1)NC1=C(CN=N1)C21COC2(CN(C(=O)C3CC(C)(C)C3)C2)C1 (stereo not given) [US20250313563, Compound 947282] = > 7.00

Kindly consider the entry below.
For reference, reported pIC50 for CC(C)(C)CC1N=NC2=C1[C@](C)(c1cccc(S(=O)(=O)C(F)(F)F)c1)C1=C(CC(C)(C)CC1=O)N2 (stereo not given in full) [US20250313563, Compound 126395] stands at 5.30 to 6.00

----------
- TARGET UNDER TEST: Glycogen synthase kinase-3 beta (Homo sapiens, UniProt P49841)
- Sequence (P49841 whole entry): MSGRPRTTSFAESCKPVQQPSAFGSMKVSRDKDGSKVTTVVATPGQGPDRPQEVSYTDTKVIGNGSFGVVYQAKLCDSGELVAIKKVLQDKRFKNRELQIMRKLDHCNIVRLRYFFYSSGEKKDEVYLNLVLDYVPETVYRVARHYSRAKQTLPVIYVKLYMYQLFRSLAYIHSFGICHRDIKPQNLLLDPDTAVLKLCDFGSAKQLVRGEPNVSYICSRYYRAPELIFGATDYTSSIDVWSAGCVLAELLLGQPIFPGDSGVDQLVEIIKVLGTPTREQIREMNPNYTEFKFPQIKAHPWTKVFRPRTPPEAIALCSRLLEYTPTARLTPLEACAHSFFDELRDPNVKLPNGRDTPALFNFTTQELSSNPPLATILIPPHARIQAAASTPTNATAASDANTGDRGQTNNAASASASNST
- PROTOCOL DETAILS: TR-FRET Assay
MEASUREMENT KIND: IC50

Completed entries (count: 3):
CC1(C)CC(=O)C2=C(C1)NC1=C(CN=N1)C21CCS(=O)(=O)CC1 = 100 to 1000 nM
CCC1(c2cccc(C(F)(F)F)c2)C2=CN=NC2NC2=C1C(=O)NCC2 (centres undefined) = > 5000 nM
CC1(C)CC(=O)C2=C(C1)NC1=C(CN=N1)C21CCSC1 (centres undefined) = 100 to 1000 nM

// IC50 lookup, compound = CC[C@]1(c2cccc(OC)c2)C2=C(CC(C)(C)CC2=O)NC2N=NC(C(F)(F)F)=C21 (some centres undefined) , result: 1000 to 5000 nM

----------
pIC50: −log10 of the molar value.
As a worked illustration, we turn to pIC50 data collected for Glycogen synthase kinase-3 beta (Homo sapiens).

Take a look at these entries with their results.
CCC1(c2cccc(C(F)(F)F)c2)C2=C(CC(C)(C)CC2=O)NC2N=NC(C(F)(F)F)=C21 (stereo not drawn) = 5.30 to 6.00
CN1C[C@]2(C3=C(CC(C)(C)CC3=O)NC3N=NC(C4CC(F)(F)C4)=C32)c2ccccc21 (stereo partly drawn) = 6.00 to 7.00
CC[C@@]1(c2cccc(-c3cnn(-c4ccccn4)c3)c2)C2=CN=NC2NC2=C1C(=O)NC(C)(C)C2 (stereo partly drawn) = 5.30 to 6.00

GET /values?item= CC(=O)N1CCC2(C1)C1=CN=NC1NC1=C2C(=O)CC(C)(C)C1 (stereo not drawn) &system= Glycogen synthase kinase-3 beta (Homo sapiens) returns pIC50: 5.30 to 6.00

----------
- TARGET UNDER TEST: Glycogen synthase kinase-3 alpha (Homo sapiens)
MEASUREMENT KIND: IC50

CC[C@]1(c2ccccc2)C2=CN=NC2NC2=C1C(=O)C[C@H](c1ccccc1)C2 (stereo partly drawn) = 1000 to 5000 nM
CC1(C)CC(=O)C2=C(C1)NC1=C(CN=N1)C21CCN(S(=O)(=O)c2cnc3ccccn23)CC1 = < 100 nM
CC1(C)CC(=O)C2=C(C1)NC1=C(CN=N1)C21CCN(S(=O)(=O)c2cccc3ncccc23)CC1 = < 100 nM
CC[C@]1(c2cccc(-c3cnn(C)c3C#N)c2)C2=CN=NC2NC2=C1C(=O)NC(C)(C)C2 (stereo partly drawn) = > 5000 nM
CC[C@@]1(c2cccc(N(C)c3ncccn3)c2)C2=C(N=NC2)NC2=C1C(=O)C(C)(C)C2 = 1000 to 5000 nM
CCC1(c2cccc(N(C)c3ccc(F)nc3)c2)C2=CN=NC2NC2=C1C(=O)CC(C)(C)C2 (stereo not drawn) = < 100 nM
CCC1(c2cccc(-c3cnn(C)c3C)c2)C2=C(CC(C)(C)CC2=O)NC2N=NC(C)=C21 (stereo not drawn) = < 100 nM

API: the following record is the query input.
The compound CC[C@@]1(c2cccc(-c3cn(C)nc3C)c2)C2=C(CC(C)(C)NC2=O)NC2N=NC(F)=C21 (stereo partly drawn) , tested on Glycogen synthase kinase-3 alpha (Homo sapiens), showed IC50 of < 100 nM

----------
Known IC50 of a selection of compounds
- TARGET UNDER TEST: Glycogen synthase kinase-3 beta (Homo sapiens, UniProt P49841)

Reference set (5 entries):
CCC1(c2cccc(-c3ccnc(C)c3)c2)C2=C(CC(C)(C)NC2=O)NC2N=NC(F)=C21 (stereo not given) = 1 to 5 µM
CCC1(c2cccc(N(C)c3nccn3C)c2)C2=CN=NC2NC2=C1C(=O)CC(C)(C)C2 (stereo not given) = 1 to 5 µM
CCC1(c2cccc(S(=O)(=O)Cc3ccccc3)c2)C2=CN=NC2NC2=C1C(=O)CC(C)(C)C2 (stereo not given) = < 0.1 µM
CCC1(c2cccc(N3CCCCC3)c2)C2=CN=NC2NC2=C1C(=O)NC(C)(C)C2 (stereo not given) = 1 to 5 µM
CCn1cc(N2CCC3=C(C2=O)[C@](CC)(c2cccc(C(F)(F)F)c2)C2=CN=NC2N3)cn1 (stereo not given in full) [US20250313563, Compound 949867] = 0.1 to 1 µM

Given the compound CC[C@@]1(c2cccc(-c3c4c(nn3C)CCCC4)c2)C2=CN=NC2NC2=C1C(=O)NC(C)(C)C2 (stereo not given in full) and test system Glycogen synthase kinase-3 beta (Homo sapiens, UniProt P49841), the measured IC50 is > 5 µM

Record `CC1(C)CC(=O)C2=C(C1)NC1=C(CN=N1)C21CN(C2CCCCC2)C1` / Glycogen synthase kinase-3 beta (Homo sapiens, UniProt P49841), IC50 recorded as 1 to 5 µM

Entry `CC(C)n1cc(S(=O)(=O)N2CCC3(CC2)C2=C(N=NC2)NC2=C3C(=O)CC(C)(C)C2)cn1` : IC50 on Glycogen synthase kinase-3 beta (Homo sapiens, UniProt P49841) = < 0.1 µM

Test item CC[C@]1(c2cccc(-c3ccnc4c3cnn4C)c2)C2=CN=NC2NC2=C1C(=O)NC(C)(C)C2 (stereo not given in full) ; Glycogen synthase kinase-3 beta (Homo sapiens, UniProt P49841); reported IC50 was > 5 µM

Log: Glycogen synthase kinase-3 beta (Homo sapiens, UniProt P49841), compound `Cn1cc([C@H]2CC[C@@]3(CC2)C2=C(N=NC2)NC2=C3C(=O)CC(C)(C)C2)cn1` , IC50 = > 5 µM

----------
Target or system Glycogen synthase kinase-3 beta (Homo sapiens, UniProt P49841): recorded pIC50 listed per item.
pIC50: −log10 of the molar value.

Form: compound = CC[C@]1(c2cccc(N3CCc4ccncc43)c2)C2=CN=NC2NC2=C1C(=O)CC(C)(C)C2 (stereo partly drawn) ; pIC50 = 6.00 to 7.00

Reported pIC50 ( `CC1(C)CC(=O)C2=C(C1)NC1=C(CN=N1)C21CCN(S(=O)(=O)c2ccc(F)c(F)c2)CC1` ) = > 7.00

The compound listed as CCC1(c2cccc(-c3ccnc(C(C)C)c3)c2)C2=CN=NC2NC2=C1C(=O)CC(C)(C)C2 (stereo not drawn) has a reported pIC50 of 5.30 to 6.00
